TEST SUMMARY: yeast display, Sf9 membrane polyspecificity reagent, FACS + sequencing; frameworks hold sequencing errors
MEASUREMENT TYPE: polyreactivity (PSR sort gate)

Some entries whose results are on file:
QVQLVESGGGLVQAGGSLRLSCAASGSTFRWYAMGWYRQAPGKERELVAAITAGGRTYYADSVKGRFTISRDNAKNTVYLQMTSLKPEDTAVYYCNALGKPTWYATTYDYWGQGTQVTVSS: high polyreactivity
QVQLVESGGGLVQAGGSLRLSCAASGSIFFYYAMGWYRQAPGKERELVAAITLSDGRTYYADSVKGRFTISRDNAKNTVYLQMNSLKPEDTAVYYCNADTGWYPTGARWHHYDYWGQGTQVTVSS: high polyreactivity
QVQLVESSGGLVQAGGSLRLSCAASGRTFSRNAMGWYRQAPGKERELVAAITYSGGTTYYADSVKGRFTISRDNAKNTVYLQMNSLKPEDTAVYYCATPSRKSGVGYPSYNYWGQGTQVTVSS: high polyreactivity
QVQLVESGGGLLQAGGSLRLSCAASGYTFASNAMGWYRQAPGKERELVAAITRGGSTNYADSVKGRFTISRDNAKNTVYLQMNSLKPEDTAVYYCAAPRYRHTRKGGYWGQGTQLTVSS: low polyreactivity

Query string: # input sequence: `QVQLVESGGVLVQAGGSLRLSCAASGRTFNLIAMGWYRQAPGKERELVAAISRSGGSTYYADSEKGRFTISRDNAKNTVYLQMNSLNPEETAVYYCNASALGRPYYRGSYFVFQGYEYWGLGTQVTVSS` ; wanted: its polyreactivity (PSR sort gate)
Result string: low polyreactivity

Measured values drawn from the nanobody polyreactivity screen of Harvey et al. (2022) for this set.
